assay: qHTS of pediatric cancer cell lines to identify multiple opportunities for drug repurposing: Primary screen for OHS-50 cells (AID 1347103); conditions: OHS-50 osteosarcoma viability, CellTiter-Glo luminescence, 48 h; series mostly up to 57.3 µM; note: nearly all actives have a fitted effect of over 40% in size
Records with an inconclusive call do not appear. The source made the active and inactive calls. Calls come from the whole dose curve; as a rule, active = well fitted cell-killing curve with a large enough effect; inconclusive = small, poorly fitted or top-dose-only effect; inactive = no such curve, though single readings can be large or run the other way.
Use one of these outcomes when replying: 1 (active), -1 (inactive)

[
  {
    "compound": "Cc1ccccc1C(=O)Nc1ccc(C(=O)N2CCCC(N(C)C)c3ccccc32)cc1 (stereo not given)",
    "qualitative-label": 1
  }
]

Task: So what was the verdict on `Cc1onc(-c2c(Cl)cccc2Cl)c1C(=O)N[C@@H]1C(=O)N2[C@@H]1SC(C)(C)[C@@H]2C(=O)O` in this test?
Output: -1

Task: So what was the verdict on `COC(=O)C1=C(C)NC(C)=C(C(=O)O[C@@H]2CCCN(Cc3ccccc3)C2)[C@@H]1c1cccc([N+](=O)[O-])c1` in this test?
Output: 1

Task: So what was the verdict on CN1C(CCl)Nc2cc(Cl)c(S(N)(=O)=O)cc2S1(=O)=O (stereo not given) in this test?
Output: -1

Task: So what was the verdict on `O=C1OCCN1/N=C/c1ccc([N+](=O)[O-])o1` in this test?
Output: -1

Task: So what was the verdict on `CCCCOc1cc(C(=O)NCCN(CC)CC)c2ccccc2n1` in this test?
Output: -1
